system_tested: Cytochrome P450 2C9 (Homo sapiens)
Sequence (P11712 whole entry): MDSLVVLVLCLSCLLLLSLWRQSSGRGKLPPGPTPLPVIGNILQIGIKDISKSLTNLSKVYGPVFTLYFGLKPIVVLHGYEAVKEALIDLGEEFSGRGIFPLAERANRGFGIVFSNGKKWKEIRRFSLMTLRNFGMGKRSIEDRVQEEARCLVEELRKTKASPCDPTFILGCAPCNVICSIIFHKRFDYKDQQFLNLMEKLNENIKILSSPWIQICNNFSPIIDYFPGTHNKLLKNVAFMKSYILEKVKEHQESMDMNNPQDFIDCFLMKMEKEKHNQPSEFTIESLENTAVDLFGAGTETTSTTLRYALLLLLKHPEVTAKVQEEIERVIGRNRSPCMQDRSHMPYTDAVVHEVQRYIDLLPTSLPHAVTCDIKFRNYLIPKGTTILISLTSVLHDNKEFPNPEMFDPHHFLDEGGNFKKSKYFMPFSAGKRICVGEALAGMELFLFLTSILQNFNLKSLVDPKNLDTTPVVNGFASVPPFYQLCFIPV
assay_info: Inhibition of recombinant human CYP2C9 expressed in baculovirus infected insect cell microsomes using vivid BOMF as substrate preincubated for 10 mins followed by substrate addition and measured after 25 mins in presence of […] by fluorescence assay
Assay type: ADME
Catalogue of IC50 readings, one per entry.
Please state the figure in µM; there is no need to write the unit.

Example entries begin here.
compound: O=C(Nc1ccc(SC(F)(F)F)c(Cl)c1)c1ccc(CN2CCCCC2)cc1
system_tested: Cytochrome P450 2C9 (Homo sapiens)
IC50 [µM]: 4.49
--
compound: CC(C)(C)c1ccc(NC(=O)c2ccc(CN3CCCCC3)cc2)c(C(C)(C)C)c1
system_tested: Cytochrome P450 2C9 (Homo sapiens)
IC50 [µM]: 18.6

Shifting focus to the compound that follows.
Query string: Name the recorded IC50 for CC(c1ccc(C(=O)N2CCc3cc(C(C)(C)C)ccc32)cc1)N1CCCCC1 (centres undefined) .
Result string: 7.94
